The reported measurements were obtained from patent US11236055B2.

Molecular target: mouse TGR5 receptor (Mus musculus)
Construct: expressed in transfected cells; host or cells: HEK293-EBNA (293 c18, ATCC CRL10852), Hygromycin B selection
Sequence (Q80SS6 1-329): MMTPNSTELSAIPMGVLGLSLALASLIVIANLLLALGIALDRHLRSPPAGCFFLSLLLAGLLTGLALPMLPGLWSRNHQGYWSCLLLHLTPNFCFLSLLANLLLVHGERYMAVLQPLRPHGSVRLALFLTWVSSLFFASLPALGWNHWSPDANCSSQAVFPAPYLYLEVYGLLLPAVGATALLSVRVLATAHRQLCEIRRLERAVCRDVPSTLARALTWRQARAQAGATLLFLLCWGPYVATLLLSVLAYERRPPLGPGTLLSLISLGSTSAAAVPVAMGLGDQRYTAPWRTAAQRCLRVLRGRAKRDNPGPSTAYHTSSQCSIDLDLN
Test: Mouse TGR5 cAMP production assay (luminescent, DiscoveRx cAMP XS+)
Format: cell-based
Conditions: HEK293-EBNA cells overexpressing mouse TGR5, luminescent cAMP XS+; coded A-D; read-out: Mouse TGR5 Lum. cAMP Activity (EC50)
pEC50: −log10 of the molar value.
pEC50 overview

RECORD_SMILES | VAL
C[C@H](NS(=O)(=O)c1cccc(Br)c1)c1cccc(-c2ccncc2Cl)c1 | 4.52 to 6.00
O=S(=O)(NCc1ccc(F)c(-c2ccncc2)c1)c1cccc(C(F)(F)F)c1 | 4.52 to 6.00
COc1cnccc1-c1cccc(C(C)(C)NS(=O)(=O)c2ccccc2[N+](=O)[O-])c1 | > 7.00
COc1cnccc1-c1cccc(C(C)(C)NS(=O)(=O)c2cccc(Br)c2)c1 | 4.52 to 6.00
Cc1cnccc1-c1cccc([C@H](C)NS(=O)(=O)c2cccc(C(F)(F)F)c2)c1 | 6.00 to 7.00
Cc1noc(C)c1-c1cccc(CNS(=O)(=O)c2ccccc2C(F)(F)F)c1 | 4.52 to 6.00
O=S(=O)(NCc1ccc(F)c(-c2ccncc2Cl)c1)c1cccc(C(F)(F)F)c1 | 4.52 to 6.00
Cc1cnccc1-c1cccc(C(C)(C)NS(=O)(=O)c2cccc(C(F)(F)F)c2)c1 | > 7.00
C[C@H](NS(=O)(=O)c1cccc(C(F)(F)F)c1)c1cccc(-c2ccncc2Cl)c1 | 6.00 to 7.00
CCOc1cnccc1-c1cccc(C(C)(C)NS(=O)(=O)c2ccccc2C(F)(F)F)c1 | 6.00 to 7.00

# pEC50 lookup, item `C[C@H](NS(=O)(=O)c1cccc(C(F)(F)F)c1)c1cccc(-c2ccncc2)c1`
4.52 to 6.00

# pEC50 lookup, item `COc1cnccc1-c1cccc(CNS(=O)(=O)c2cccc(C(F)(F)F)c2)n1`
4.52 to 6.00

# pEC50 lookup, item `O=S(=O)(NCc1cc(-c2ccncc2)ccc1F)c1cccc(C(F)(F)F)c1`
4.52 to 6.00

* * *

Target: human TGR5 receptor (Homo sapiens, UniProt Q8TDU6)
Sequence (Q8TDU6 whole entry): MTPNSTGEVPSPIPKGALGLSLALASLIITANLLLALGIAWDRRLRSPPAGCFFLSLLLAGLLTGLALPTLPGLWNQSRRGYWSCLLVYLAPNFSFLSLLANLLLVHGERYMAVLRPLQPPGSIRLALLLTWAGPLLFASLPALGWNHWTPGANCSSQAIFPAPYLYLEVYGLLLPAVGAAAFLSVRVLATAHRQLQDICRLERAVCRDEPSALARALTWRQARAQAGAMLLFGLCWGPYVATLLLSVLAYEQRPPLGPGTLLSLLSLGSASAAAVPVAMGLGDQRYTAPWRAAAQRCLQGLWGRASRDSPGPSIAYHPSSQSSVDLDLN
Assay: Human TGR5 cAMP production assay
Conditions: human TGR5, luminescent cAMP assay; coded A-D; read-out: Human TGR5 Lum. cAMP Activity (EC50)
EC50 overview

Some solved entries appear below for comparison.
COMPOUND | EC50
O=S(=O)(NCc1cccc(-c2cc(C(F)(F)F)ncn2)c1)c1cccc(C(F)(F)F)c1 | 1 to 30 µM
CCc1cnccc1-c1cccc([C@H](C)N(CCCCNC(=O)[C@@H](N)CS(=O)(=O)O)S(=O)(=O)c2cccc(Cl)c2C)c1 [Compound 31AD] | < 0.1 µM
Cc1c(Cl)cccc1S(=O)(=O)N1CCN(C(=O)CCC(=O)O)CC1c1cccc(-c2ccncc2Cl)c1 (stereo not drawn) [Compound 46AG] | 0.1 to 0.999 µM
C[C@@H](NS(=O)(=O)c1cccc(C(F)(F)F)c1)c1cccc(-c2ccncc2Cl)c1 | 0.1 to 0.999 µM
Cc1cnccc1-c1cccc(C(C)(C)N(CCCNc2ncc(C(=O)O)cn2)S(=O)(=O)c2cccc(Cl)c2C)c1 | < 0.1 µM
Cc1cnccc1-c1cccc([C@H](C)N(CCCCC(=O)NC[C@@H](O)[C@H](O)[C@@H](O)[C@@H](O)CO)S(=O)(=O)c2cccc(Cl)c2C)c1 [Compound 20AI] | < 0.1 µM
Cc1cnccc1-c1cccc([C@H](C)N(CCCC(=O)NCCC(=O)O)S(=O)(=O)c2cccc(Cl)c2C)c1 [Compound 21AH] | < 0.1 µM
Cc1c(Cl)cccc1S(=O)(=O)N(CCCC(=O)O)C(C)(C)c1cccc(-c2ccncc2CO)c1 [Compound 16AC] | < 0.1 µM

# EC50 lookup, item `COc1cnccc1-c1cccc(C(C)(C)NS(=O)(=O)c2cc(C(F)(F)F)ccc2OC)c1`
1 to 30 µM

# EC50 lookup, item `CC(C)(NS(=O)(=O)c1cccc(C(F)(F)F)c1)c1cccc(-c2ccc3nccn3c2)c1`
0.1 to 0.999 µM

# EC50 lookup, item Cc1cnccc1-c1cccc(C(C)(C)N(CCCC(=O)NCCS(N)(=O)=O)S(=O)(=O)c2cccc(Cl)c2C)c1 [Compound 20AE]
< 0.1 µM

# EC50 lookup, item CCC(NS(=O)(=O)c1cccc(C(F)(F)F)c1)c1cccc(-c2ccncc2C)c1 (racemic)
0.1 to 0.999 µM

# EC50 lookup, item `Cc1noc(C)c1-c1cccc(C(C)(C)NS(=O)(=O)c2cccc(C(F)(F)F)c2)c1`
1 to 30 µM

# EC50 lookup, item Cc1cnccc1-c1cccc(C(C)N(CCCC(=O)NCCSO)S(=O)(=O)c2ccccc2C(F)(F)F)c1 (stereo not drawn) [Compound 20BC]
< 0.1 µM

# EC50 lookup, item `Cc1cnccc1-c1cccc([C@H](C)N(CCCCNCCC(=O)O)S(=O)(=O)c2cccc(Cl)c2C)c1`
0.1 to 0.999 µM

# EC50 lookup, item Cc1c(Cl)cccc1S(=O)(=O)N1CCN(C(=O)CS(=O)(=O)O)CC1c1cccc(-c2ccncc2)c1 (stereo not drawn) [Compound 49AD]
0.1 to 0.999 µM

# EC50 lookup, item `Cc1cnccc1-c1cccc([C@@H](C)NS(=O)(=O)c2cccc(C(F)(F)F)c2)c1`
< 0.1 µM

# EC50 lookup, item CCOC(=O)C[C@H](NS(=O)(=O)c1ccccc1C(F)(F)F)c1cccc(-c2ccncc2C)c1 [Compound 18A]
< 0.1 µM
